target: Human N-His6-IDE42-1019 (E. coli expressed) (Homo sapiens, UniProt P14735); construct: Human N-His6-IDE42-1019 (E. coli expressed); made in house; host or cells: E. coli (Rosetta 2 (DE3) pLysS, plasmid pTrcHis-A); experiment: Fluorescence anisotropy high-throughput screening assay (displacement of probe FL-6b); type: binding; details: final compound concentration 20 μM (6bK control 1 μM); values without asterisk
Sequence (P14735 42-1019): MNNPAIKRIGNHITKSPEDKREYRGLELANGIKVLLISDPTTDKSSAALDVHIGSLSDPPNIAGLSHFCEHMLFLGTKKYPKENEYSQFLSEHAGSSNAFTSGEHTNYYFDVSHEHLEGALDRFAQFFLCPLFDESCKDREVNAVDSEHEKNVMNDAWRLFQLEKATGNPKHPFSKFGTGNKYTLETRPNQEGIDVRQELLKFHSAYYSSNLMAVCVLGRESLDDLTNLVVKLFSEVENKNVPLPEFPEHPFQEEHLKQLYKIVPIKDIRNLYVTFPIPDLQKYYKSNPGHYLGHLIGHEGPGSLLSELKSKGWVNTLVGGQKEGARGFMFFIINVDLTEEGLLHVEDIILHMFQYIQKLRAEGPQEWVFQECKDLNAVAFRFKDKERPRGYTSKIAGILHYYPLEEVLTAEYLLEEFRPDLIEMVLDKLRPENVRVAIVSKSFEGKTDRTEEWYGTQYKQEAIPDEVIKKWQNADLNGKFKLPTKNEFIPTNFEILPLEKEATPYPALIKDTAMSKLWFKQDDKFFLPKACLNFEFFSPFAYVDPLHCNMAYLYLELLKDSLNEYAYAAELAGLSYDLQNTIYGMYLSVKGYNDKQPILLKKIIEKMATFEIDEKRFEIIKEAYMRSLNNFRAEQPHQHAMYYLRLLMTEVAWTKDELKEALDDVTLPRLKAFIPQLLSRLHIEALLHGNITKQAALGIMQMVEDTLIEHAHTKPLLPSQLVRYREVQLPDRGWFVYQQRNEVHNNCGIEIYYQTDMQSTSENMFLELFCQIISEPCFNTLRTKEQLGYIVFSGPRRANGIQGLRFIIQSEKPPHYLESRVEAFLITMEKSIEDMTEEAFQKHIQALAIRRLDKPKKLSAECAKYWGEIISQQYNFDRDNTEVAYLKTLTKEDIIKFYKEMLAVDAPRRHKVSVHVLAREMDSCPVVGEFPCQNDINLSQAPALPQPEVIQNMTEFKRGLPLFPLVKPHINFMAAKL
PARAMETER: Average Z-score (Fluorescence anisotropy)

O=C(c1ccccn1)N1CC(=O)N2[C@@H](CO)[C@@H](c3ccc(C#Cc4ccccc4)cc3)[C@@H]2C1 :: −19.91
Cc1ccccc1-c1ccc([C@@H]2[C@H](CO)N3CCCCN(C(=O)NC4CCCC4)C[C@@H]23)cc1 :: −19.01

P = Cc1cccc(-c2ccc([C@@H]3[C@@H](CO)N4CCCCN(S(=O)(=O)c5cccc(C)c5)C[C@@H]34)cc2)c1
Q = Cc1ccccc1-c1ccc([C@H]2[C@@H](CO)N3CCCCN(C(=O)NC4CCCC4)C[C@H]23)cc1
Between the two listed entries P and Q , which has its Average Z-score (Fluorescence anisotropy) at the higher number? Mark your answer with the label of the selected entry.
P
(P: −9.77, Q: −17.33)

A = CCCNC(=O)N1CC(=O)N2[C@H](CO)[C@@H](c3ccc(-c4cccc(C)c4)cc3)[C@@H]2C1
B = Cc1cccc(-c2ccc([C@@H]3[C@@H](CO)N4CCCCN(C(=O)NC(C)C)C[C@@H]34)cc2)c1
Select one. Lower Average Z-score (Fluorescence anisotropy): A or B Identify your selection by its label.
A

---

target: Human N-His6-IDE42-1019 (E. coli expressed) (Homo sapiens, UniProt P14735); construct: Human N-His6-IDE42-1019 (E. coli expressed); made in house; host or cells: E. coli (Rosetta 2 (DE3) pLysS, plasmid pTrcHis-A); assay: Fluorescence anisotropy high-throughput screening assay (displacement of probe FL-6b); type: binding; conditions: final compound concentration 20 μM (6bK control 1 μM); values without asterisk
PARAMETER: Average Z-score (Fluorescence anisotropy)

// solved cases for Average Z-score (Fluorescence anisotropy) follow
Cc1ccccc1-c1ccc(C2C3CN(C(=O)c4cnccn4)CC2N3)cc1 (stereo not shown) :: −20.0
CCCCC(=O)N1CC(=O)N2[C@@H](CO)[C@@H](c3ccc(C#Cc4cccc(OC)c4)cc3)[C@@H]2C1 :: −1.33
Cc1ccccc1-c1ccc([C@@H]2[C@@H](CO)N3C(=O)CN(C(=O)Cc4ccccn4)C[C@@H]23)cc1 :: −19.85
Cc1ccccc1-c1ccc(C2C3CN(C(=O)C4CCOCC4)CC2N3)cc1 (stereo not shown) :: −7.7

I = Cc1ccccc1-c1ccc([C@@H]2[C@H]3CN(C(=O)c4cccnc4)CC(=O)N3[C@H]2CO)cc1
II = Cc1cccc(-c2ccc([C@@H]3[C@@H](CO)N4CCCCN(CC5CC5)C[C@@H]34)cc2)c1
III = COc1ccccc1-c1ccc([C@@H]2[C@@H](C#N)N(C(=O)NC3CCCCC3)[C@@H]2CO)cc1
Put the items in order so that reported Average Z-score (Fluorescence anisotropy) rises from first to last. List the labels, following the order given in the request.
III, I, II

A = Cc1cccc(-c2ccc([C@H]3[C@@H](CO)N4CCCCN(C(=O)c5ccncc5)C[C@H]34)cc2)c1
B = COc1ccccc1-c1ccc([C@H]2[C@H](C#N)N[C@@H]2CO)cc1
Could you check which of A and B has a smaller value for Average Z-score (Fluorescence anisotropy)? Pick one; state its label.
A
(A: −18.28, B: −10.49)

---

biological target: Human N-His6-IDE42-1019 (E. coli expressed) (Homo sapiens, UniProt P14735); construct: Human N-His6-IDE42-1019 (E. coli expressed); made in house; host or cells: E. coli (Rosetta 2 (DE3) pLysS, plasmid pTrcHis-A); test: Fluorescence anisotropy high-throughput screening assay (displacement of probe FL-6b); type: binding; conditions: values marked *: from the screen using the diversity-oriented synthesis (DOS) informer set of plates; 20 μM
Recorded Average Z-score (Fluorescence anisotropy) for the following compounds

Example entries and their recorded answers appear below.
COc1ccccc1C#Cc1ccc([C@@H]2[C@H](CO)N3CCCCN(C(=O)C4CCC4)C[C@@H]23)cc1 :: −10.53*
COc1ccccc1-c1ccc([C@H]2[C@@H](CO)N3CCCCN(C(=O)c4cccnc4)C[C@H]23)cc1 :: −12.81*
Cc1cccc(-c2ccc([C@@H]3[C@@H](CO)N4CCCCN(S(=O)(=O)c5ccccc5F)C[C@@H]34)cc2)c1 :: −27.23*
Cc1ccccc1-c1ccc([C@@H]2[C@H]3CN(C(=O)c4ccncc4)CC(=O)N3[C@H]2CO)cc1 :: −13.56*

Can you share its Average Z-score (Fluorescence anisotropy)? I mean this compound: COc1ccccc1C#Cc1ccc([C@H]2[C@H](CO)N3CCCCN(C(=O)C4CCC4)C[C@@H]23)cc1
−12.26*

How about this compound: Cc1ccccc1-c1ccc([C@@H]2[C@@H](CO)N3C(=O)CN(S(C)(=O)=O)C[C@@H]23)cc1
−12.65*

// repeat for COc1ccccc1C#Cc1ccc([C@H]2[C@H]3CN(C(=O)C4CCC4)CCCCN3[C@H]2CO)cc1 and report
−17.53*

---

molecular target: recombinant human IDE42-1019 (Homo sapiens); construct: recombinant human IDE42-1019 (R&D Systems); purchased R&D Systems; experiment: Protease assay with fluorogenic peptide substrate Mca-[…](Dnp)-OH; type: biochemical; details: fluorogenic peptide Mca-RPPGFSAFK(Dnp)-OH; plateau at high inhibitor concentration; read-out: Imax (%) Proteolysis (inhibition maximum)
Sequence (P14735 42-1019): as above
PARAMETER: Emax (%)

Cc1ccccc1-c1ccc([C@@H]2[C@@H](CO)N3CCCCN(C(=O)c4cccnc4)C[C@@H]23)cc1 :: 50
Cc1ccc(C)c(-c2ccc([C@@H]3[C@@H](CO)N4CCCCN(S(=O)(=O)c5ccccc5C)C[C@@H]34)cc2)c1 :: 65
CCCNC(=O)N1CC(=O)N2[C@@H](CO)[C@H](c3ccc(-c4cccc(C)c4)cc3)[C@@H]2C1 :: 60

I = COc1ccccc1-c1ccc([C@H]2[C@@H](CO)N3CCCCN(C(=O)c4ccncc4)C[C@H]23)cc1
II = Cc1cccc(-c2ccc([C@@H]3[C@@H](CO)N4CCCCN(S(=O)(=O)c5cccc(C)c5)C[C@@H]34)cc2)c1
Lab note: check whether I or II has the lower measured Emax. Your answer should be the label of the entry you select.
II

---

target: Human N-His6-IDE42-1019 (E. coli expressed) (Homo sapiens, UniProt P14735); construct: Human N-His6-IDE42-1019 (E. coli expressed); made in house; host or cells: E. coli (Rosetta 2 (DE3) pLysS, plasmid pTrcHis-A); experiment: Fluorescence anisotropy high-throughput screening assay (displacement of probe FL-6b); format: binding; conditions: final compound concentration 20 μM (6bK control 1 μM); values without asterisk
PARAMETER: Average Z-score (Fluorescence anisotropy)

Here are 4 compounds together with their reported answers.
Cc1ccccc1-c1ccc(C2C3CN(Cc4ccncc4)CC2N3)cc1 (stereo not drawn) [C3] :: −9.02
Cc1ccccc1-c1ccc([C@H]2[C@H](CO)N3C(=O)CN(C(=O)Nc4cccc(F)c4)C[C@@H]23)cc1 [compound 534] :: −3.03
COc1cccc(-c2ccc([C@@H]3[C@@H](CO)N4CCCCN(C(=O)Nc5ccncc5)C[C@@H]34)cc2)c1 [compound 433] :: −2.37
Cc1ccccc1-c1ccc([C@@H]2[C@@H](CO)N3CCCCN(C(=O)c4cccnc4)C[C@@H]23)cc1 [compound 353] :: −7.98

A = CCS(=O)(=O)N1CCCCN2[C@H](CO)[C@@H](c3ccc(-c4ccccc4C)cc3)[C@@H]2C1 [compound 416]
B = Cc1cccc(-c2ccc([C@@H]3[C@@H](CO)N4CCCCN(S(=O)(=O)c5cccs5)C[C@@H]34)cc2)c1 [compound 945]
Quick check, higher Average Z-score (Fluorescence anisotropy) between A and B ? Use the label to indicate which entry you chose.
B
(B: −3.77, A: −18.29)

I = Cc1cccc(-c2ccc([C@H]3[C@@H](CO)N4CCCCN(Cc5cccnc5)C[C@H]34)cc2)c1 [compound 959]
II = Cc1ccccc1-c1ccc([C@H]2[C@@H](CO)N3C(=O)CN(C(=O)Cc4ccccn4)C[C@@H]23)cc1 [compound 805]
Lower Average Z-score (Fluorescence anisotropy): I or II ? Choose, then provide that item's label.
II
(II: −17.31, I: −6.79)

I = Cc1cccc(-c2ccc([C@H]3[C@@H](CO)N4CCCCN(C(=O)c5cccnc5)C[C@H]34)cc2)c1 [compound 091]
II = Cc1ccccc1-c1ccc([C@H]2[C@@H](CO)N3CCCCN(S(C)(=O)=O)C[C@@H]23)cc1 [compound 077]
Pick one, I or II : lowest reported Average Z-score (Fluorescence anisotropy). Give the label of your selection.
I
(I: −16.96, II: −2.31)

a = Cc1cccc(-c2ccc([C@@H]3[C@@H](CO)N4CCCCN(C(=O)c5cccnc5)C[C@@H]34)cc2)c1 [compound 443]
b = Cc1ccccc1-c1ccc([C@H]2[C@@H](CO)N3CCCCN(C(=O)Nc4ccc(F)cc4)C[C@@H]23)cc1 [compound 226]
c = Cc1cccc(-c2ccc([C@@H]3[C@H](CO)N4CCCCN(S(=O)(=O)c5cn(C)cn5)C[C@@H]34)cc2)c1 [compound 795]
Ranking field: Average Z-score (Fluorescence anisotropy); order: falling. Thanks in advance for listing the labels in the requested order.
b, a, c
(b: −1.67, a: −3.13, c: −19.52)
